Target: wild type PAN protein (PA endonuclease domain) (Influenza A virus, UniProt C3W5S0)
Assay: biochemical
Type: binding
Conditions: read-out: WT FP Ki
property-name: pKi
One number for each entry, as −log10 of the molar value.

pKi reading for O=C(O)C(=O)CC(=O)c1ccccc1 [DPBA, reference compound] : 5.43

----------
Target: wild type PAN protein (PA endonuclease domain) (Influenza A virus, UniProt C3W5S0)
Test: biochemical
Format: binding
Settings: FP Ki
Mark 1 (yes) only for Ki values smaller than 500 nM; exact matches and larger values are 0 (no).

The examples below pair each entry with its known result.
[[record]]
molecule = "COCCNC(=O)c1nc([C@@H]2CCCN2C(=O)COc2ccccc2)[nH]c(=O)c1O"
study_target = "wild type PAN protein (PA endonuclease domain) (Influenza A virus, UniProt C3W5S0)"
assigned_category = "0 (no)"

[[record]]
molecule = "O=C(NC1Cc2ccccc2C1)c1nc([C@@H]2CCCN2C(=O)COc2ccccc2Cl)[nH]c(=O)c1O [Compound 10h]"
study_target = "wild type PAN protein (PA endonuclease domain) (Influenza A virus, UniProt C3W5S0)"
assigned_category = "1 (yes)"

[[record]]
molecule = "O=C(NCCc1ccncc1)c1nc([C@@H]2CCCN2C(=O)COc2ccccc2F)[nH]c(=O)c1O [Compound 10n]"
study_target = "wild type PAN protein (PA endonuclease domain) (Influenza A virus, UniProt C3W5S0)"
assigned_category = "1 (yes)"


For O=C(NCC[S+]([O-])c1ccccc1)c1nc([C@@H]2CCCN2C(=O)COc2ccccc2Cl)[nH]c(=O)c1O (stereo partly shown) [Compound 10c] , is the recorded Ki below the cut-off of 500 nM?
1 (yes)

Please determine if O=C(NCCSc1ccccc1)c1nc([C@@H]2CCCN2C(=O)COc2ccccc2Cl)[nH]c(=O)c1O [Compound 10a] is below 500 nM in terms of Ki.
0 (no)

Is 500 nM strictly greater than the molecule's reported Ki? molecule: "O=C(NCCc1ccccc1)c1nc([C@@H]2CCCN2C(=O)CSc2ccccc2Cl)[nH]c(=O)c1O"
1 (yes)

----------
Field: Ki. Provide a value for each of the compounds that follow.
Biological target: wild type PAN protein (PA endonuclease domain) (Influenza A virus, UniProt C3W5S0)
Experiment: biochemical
Assay type: binding
Conditions: FP Ki
One number for each entry, in nM.

[[record]]
compound = "O=C(NCCc1ccccc1)c1nc([C@@H]2CCCN2C(=O)COc2ccccc2F)[nH]c(=O)c1O"
result = 1300

[[record]]
compound = "O=C(NCCc1ccccc1)c1nc([C@@H]2CCCN2C(=O)C[S+]([O-])c2ccccc2Cl)[nH]c(=O)c1O (stereo partly drawn)"
result = 400

[[record]]
compound = "O=C(NCCOc1ccccc1)c1nc([C@@H]2CCCN2C(=O)c2c(Cl)cncc2Cl)[nH]c(=O)c1O"
result = 50

[[record]]
compound = "O=C(NCc1cc2ccccc2o1)c1nc([C@@H]2CCCN2C(=O)CSc2ccccc2Cl)[nH]c(=O)c1O [Compound 10l]"
result = 1000

[[record]]
compound = "O=C(NCCc1ccccc1)c1nc([C@@H]2CCCN2C(=O)CCc2ccccc2F)[nH]c(=O)c1O"
result = 3700

[[record]]
compound = "O=C(NCCOc1ccccc1)c1nc([C@@H]2CCCN2C(=O)CSc2ccccc2F)[nH]c(=O)c1O"
result = 240

[[record]]
compound = "O=C(NCCc1ccccc1)c1nc([C@@H]2CCCN2C(=O)CSc2ccccc2F)[nH]c(=O)c1O"
result = 1200

[[record]]
compound = "O=C(NCCS(=O)(=O)c1ccccc1)c1nc([C@@H]2CCCN2C(=O)COc2ccccc2Cl)[nH]c(=O)c1O [Compound 10d]"
result = 46

[[record]]
compound = "COc1ccc(S(=O)(=O)CCNC(=O)c2nc([C@@H]3CCCN3C(=O)COc3ccccc3Cl)[nH]c(=O)c2O)cc1 [Compound 10f]"
result = 38

[[record]]
compound = "O=C(NCCc1ccccc1)c1nc([C@@H]2CCCN2C(=O)c2cc(Cl)ncc2Cl)[nH]c(=O)c1O"
result = 100


Count: 4. Required value per item: Ki.
1. O=C(NCCOc1ccccc1)c1nc([C@@H]2CCCN2C(=O)COc2ccccc2F)[nH]c(=O)c1O
2. O=C(NCc1cccc(C(F)(F)F)c1)c1nc([C@@H]2CCCN2C(=O)c2c(Cl)cncc2Cl)[nH]c(=O)c1O
3. O=C(NCC1Cc2ccccc2C1)c1nc([C@@H]2CCCN2C(=O)c2c(Cl)cncc2Cl)[nH]c(=O)c1O
4. Cn1c([C@@H]2CCCN2C(=O)c2c(Cl)cncc2Cl)nc(C(=O)NC2Cc3ccccc3C2)c(O)c1=O

1: 440; 2: 160; 3: 100; 4: 1700

The compound listed as "Cn1c([C@@H]2CCCN2C(=O)c2c(Cl)cncc2Cl)nc(C(=O)NCCc2ccccc2)c(O)c1=O" shows Ki equal to 70
